Parameter: inhibition at 0.1 µM. Scope: all listed entries.
- System: MCM2 phosphorylation in COLO205 cells
- assay: Inhibitory effect on MCM2 phosphorylation using cells (Western blot)
- Type: cell-based
- experimentalParameters: Homo sapiens, COLO 205, 0.1 μM test compound, 24 hours, class by percent phosphorylation of MCM2, read-out: Test Example 2 Inhibitory effect on MCM2 phosphorylation

// known answers, use as guide
structure	targetSystem	inhibition at 0.1 µM
COCCOC(=O)C1=C(Nc2ccccc2Cl)O/C(=C\c2c[nH]c3ncccc23)C1=O	MCM2 phosphorylation in COLO205 cells	< 20%
CCOC(=O)C1=C(Nc2ccc(CN(C)C)cc2C)O/C(=C\c2c[nH]c3ncccc23)C1=O	MCM2 phosphorylation in COLO205 cells	< 20%
CCOC(=O)C1=C(NN2CCOCC2)O/C(=C\c2c[nH]c3ncccc23)C1=O	MCM2 phosphorylation in COLO205 cells	20 to 50%
O=C(OCCCO)C1=C(Nc2ccc(F)cc2)O/C(=C\c2c[nH]c3ncccc23)C1=O	MCM2 phosphorylation in COLO205 cells	< 20%
CCOC(=O)C1=C(N2CCC(C)CC2)O/C(=C\c2c[nH]c3ncccc23)C1=O	MCM2 phosphorylation in COLO205 cells	< 20%

Query string: Reported inhibition at 0.1 µM, molecule `CCOC(=O)C1=C(N2CCc3ccc(OC)cc3C2)O/C(=C\c2c[nH]c3ncccc23)C1=O` : ____
Result string: < 20%

Query string: Reported inhibition at 0.1 µM, molecule `CN(C)CCOC(=O)C1=C(Nc2ccc(F)cc2F)O/C(=C\c2c[nH]c3ncccc23)C1=O` : ____
Result string: < 20%

Query string: Reported inhibition at 0.1 µM, molecule `O=C1C=C(Nc2ccc3[nH]ncc3c2)O/C1=C\c1c[nH]c2ncccc12` : ____
Result string: 20 to 50%

Entry source: patent US8742113B2
